system: P12-Ichikawa; test: cell viability relative to DMSO control; higher = less cytotoxic; settings: HPLM + 10% dialyzed FBS; 48 h; 0.00702 µM
Recorded cell viability by entry
Write the number in % without appending the unit.

Answered cases to consult:
C1CN\2C[C@@H](\N=C2S1)C3=CC=CC=C3    99.8
COc1ccc(C2(C#N)CCC(C(=O)O)CC2)cc1OC1CCCC1 (stereo not drawn)    108

Attention now shifts to the item below.
Prompt line: Retrieve cell viability on P12-Ichikawa; query "CC(C)(Sc1ccc(CCN(CCCCC2CCCCC2)C(=O)NC2CCCCC2)cc1)C(=O)O"
Response line: 116

###

Recorded cell viability by entry
tested on: NOMO1; assay: cell viability relative to DMSO control; higher = less cytotoxic; settings: RPMI 5 mM glucose + 10% dialyzed FBS; 48 h; 0.0632 µM
Write the number in % without appending the unit.

Answered cases to consult:
CCOC(=O)O[C@]1(C(=O)OCCl)CC[C@H]2[C@@H]3CCC4=CC(=O)C=C[C@]4(C)[C@H]3[C@@H](O)C[C@@]21C    91
CC[C@H]1CN2CCc3cc(OC)c(OC)cc3[C@@H]2C[C@@H]1C[C@H]1NCCc2cc(OC)c(OC)cc21    118
N=C(N)Nc1ccc(C(=O)Oc2ccc3cc(C(=N)N)ccc3c2)cc1    95.3
O=C(NCC1CCOCC1)c1cnc(Nc2ccc(Cl)cc2Cl)nc1C(F)(F)F    131
COc1ccc([S+](=O)([O-])Nc2cccnc2Nc2ccc(O)cc2)cc1    114

Prompt line: Retrieve cell viability on NOMO1; query "NC[C@H]1O[C@H](O[C@H]2[C@H](O)[C@@H](O[C@H]3O[C@H](CO)[C@@H](O)[C@H](N)[C@H]3O)[C@H](N)C[C@@H]2N)[C@H](N)C[C@@H]1O"
Response line: 96.6

Prompt line: Retrieve cell viability on NOMO1; query "C1CN\2C[C@@H](\N=C2S1)C3=CC=CC=C3"
Response line: 93.3

Prompt line: Retrieve cell viability on NOMO1; query COC(=O)C/1=C(C)/N/C(=C(\C1C2=CC(=CC=C2)[N+]([O-])=O)C(=O)OCCCN3CCC(CC3)(C4=CC=CC=C4)C5=CC=CC=C5)C (stereo not drawn)
Response line: 107

###

Recorded cell viability by entry
system: P12-Ichikawa; assay: cell viability relative to DMSO control; higher = less cytotoxic; details: RPMI 5 mM glucose + 10% FBS; 48 h; 0.00702 µM
Write the number in % without appending the unit.

O=C(NCC1CCOCC1)c1cnc(Nc2ccc(Cl)cc2Cl)nc1C(F)(F)F    123
Oc1ccc(-c2ccc(-c3cc(Nc4cccc(CNC5CC5)c4)[nH]n3)cc2)c(O)c1    115
O=C(NCc1ccccc1)c1csc(Nc2ccncn2)n1    92.9
Cn1cnc([N+](=O)[O-])c1Sc1ncnc2nc[nH]c12    82.1

Attention now shifts to the item below.
Prompt line: Please report cell viability for the following molecule: "C=CC(=O)Nc1ccc2ncnc(Nc3ccc(OCc4cccc(F)c4)c(Cl)c3)c2c1"
Response line: 109

###

system: NOMO1; experiment: cell viability relative to DMSO control; higher = less cytotoxic; conditions: RPMI 5 mM glucose + 10% dialyzed FBS; 48 h; 0.19 µM
reported.metric: cell viability
Please answer using a numeric value trailed by its unit.

Answered cases to consult:
CC(C)(Sc1ccc(CCN(CCCCC2CCCCC2)C(=O)NC2CCCCC2)cc1)C(=O)O    104%
CN1CCN(CCCN2c3ccccc3Sc3ccc(Cl)cc32)CC1.O=C(O)/C=C\C(=O)O.O=C(O)/C=C\C(=O)O    115%
CC(C)c1c(C(=O)Nc2ccccc2)c(-c2ccccc2)c(-c2ccc(F)cc2)n1CC[C@@H](O)C[C@@H](O)CC(=O)[O-]    103%
CCOC(=O)O[C@]1(C(=O)OCCl)CC[C@H]2[C@@H]3CCC4=CC(=O)C=C[C@]4(C)[C@H]3[C@@H](O)C[C@@]21C    100%
CCOC(=O)[C@H]1O[C@@H]1C(=O)N[C@@H](CC(C)C)C(=O)NCCC(C)C    121%
CC(C)Cn1cnc2c(N)nc3ccccc3c21    110%

Prompt line: Retrieve cell viability on NOMO1; query "Oc1ccc([C@@H]2Oc3ccc(O)cc3[C@@H]3CCC[C@@H]32)cc1"
Response line: 94.1%

Prompt line: Retrieve cell viability on NOMO1; query COC(=O)C/1=C(C)/N/C(=C(\C1C2=CC(=CC=C2)[N+]([O-])=O)C(=O)OCCCN3CCC(CC3)(C4=CC=CC=C4)C5=CC=CC=C5)C (stereo not given)
Response line: 109%

Prompt line: Retrieve cell viability on NOMO1; query "CN(C)CCOc1ccc(/C(=C(/CCCl)c2ccccc2)c2ccccc2)cc1"
Response line: 125%

Prompt line: Retrieve cell viability on NOMO1; query "Cc1cnc(Nc2ccc(N3CCN(C)CC3)cc2)nc1Nc1cccc([S+](=O)([O-])NC(C)(C)C)c1"
Response line: 94.2%

Prompt line: Retrieve cell viability on NOMO1; query "C[N]1N=CC=C1C/2=C(\C)N(C(=O)C(=C2)/C(=O)NCC3=NC=C(C=C3)[S+](C)([O-])=O)C4=CC=CC(=C4)C(F)(F)F"
Response line: 123%

Prompt line: Retrieve cell viability on NOMO1; query "Cc1ccc(/C=N/NC(=O)c2ccccc2Oc2ccccc2)o1"
Response line: 101%

Prompt line: Retrieve cell viability on NOMO1; query "Cc1ccc(-c2cc(C(F)(F)F)nn2-c2ccc([S+](N)(=O)[O-])cc2)cc1"
Response line: 110%

Prompt line: Retrieve cell viability on NOMO1; query COC(=O)Nc1nc2ccc([S+]([O-])c3ccccc3)cc2[nH]1 (stereo not given)
Response line: 137%

Prompt line: Retrieve cell viability on NOMO1; query "C[C@H](Cc1ccc(O)c(O)c1)[C@@H](C)Cc1ccc(O)c(O)c1"
Response line: 114%
